Ref: PubChem BioAssay

protocol details: differential killing of epithelial or mesenchymal cells, primary screen, imaging, PC-3E GFP, TEM4-18 mCherry, co-culture (AID 1345086);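 note: cells exposed to compound for 72 h before imaging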
experimental conditions: imaging cell counts, measured here: epithelial PC-3E GFP cell survival, at 1 µM
Entries and their normalised cell number
Hey, just send me the number, nothing else.

Observe how each entry below is paired with its result.
| compound | normalised cell number |
| --- | --- |
| C=C(C)C#CC1=C[C@@H](O)[C@@H]2O[C@]2([C@H](O)C=C(C)C)[C@@H]1O | 0.96 |
| COc1cc(C(=O)O)cc(C)c1C(=O)CC(C)O (stereo not drawn) | 1.04 |
| COC(=O)C[C@H]1C(C)(C)C(=O)[C@@H]2CC3=C(CC[C@]4(C)C3=CC(=O)O[C@H]4c3ccoc3)C1(C)C2=O | 0.96 |
| CC(=O)O[C@@H]1C[C@@]2(C)C(CC[C@@H]2C(C)=O)C2CCC3=CC(=O)CC[C@]3(C)C21 (stereo partly drawn) | 0.87 |
| COc1ccc(C2Sc3ccccc3N(CCN(C)C)C(=O)C2OC(C)=O)cc1 (stereo not drawn) | 0.98 |
| COc1cc(/C=C/C(=O)O)cc(OC)c1O | 1.09 |

Query :: Report normalised cell number for CCCCC(=O)O[C@H]1CCC2C3CCc4cc(O)ccc4C3CC[C@@]21C (stereo partly drawn) please.
Result :: 0.89

Query :: Report normalised cell number for C[C@]12C=CC(=O)C=C1CCC1C2C(=O)C[C@@]2(C)C1CC[C@]2(O)C(=O)CO (stereo partly drawn) please.
Result :: 0.94
